Measured values drawn from patent US20230117034A1 for this set.

- Target: CDK12 (nuclear staining in CAL-120 cells) (Homo sapiens, UniProt Q9NYV4)
- Construct: endogenous in cells; host or cells: CAL-120 human breast cancer cells (DSMZ ACC 459)
- Sequence (Q9NYV4 whole entry): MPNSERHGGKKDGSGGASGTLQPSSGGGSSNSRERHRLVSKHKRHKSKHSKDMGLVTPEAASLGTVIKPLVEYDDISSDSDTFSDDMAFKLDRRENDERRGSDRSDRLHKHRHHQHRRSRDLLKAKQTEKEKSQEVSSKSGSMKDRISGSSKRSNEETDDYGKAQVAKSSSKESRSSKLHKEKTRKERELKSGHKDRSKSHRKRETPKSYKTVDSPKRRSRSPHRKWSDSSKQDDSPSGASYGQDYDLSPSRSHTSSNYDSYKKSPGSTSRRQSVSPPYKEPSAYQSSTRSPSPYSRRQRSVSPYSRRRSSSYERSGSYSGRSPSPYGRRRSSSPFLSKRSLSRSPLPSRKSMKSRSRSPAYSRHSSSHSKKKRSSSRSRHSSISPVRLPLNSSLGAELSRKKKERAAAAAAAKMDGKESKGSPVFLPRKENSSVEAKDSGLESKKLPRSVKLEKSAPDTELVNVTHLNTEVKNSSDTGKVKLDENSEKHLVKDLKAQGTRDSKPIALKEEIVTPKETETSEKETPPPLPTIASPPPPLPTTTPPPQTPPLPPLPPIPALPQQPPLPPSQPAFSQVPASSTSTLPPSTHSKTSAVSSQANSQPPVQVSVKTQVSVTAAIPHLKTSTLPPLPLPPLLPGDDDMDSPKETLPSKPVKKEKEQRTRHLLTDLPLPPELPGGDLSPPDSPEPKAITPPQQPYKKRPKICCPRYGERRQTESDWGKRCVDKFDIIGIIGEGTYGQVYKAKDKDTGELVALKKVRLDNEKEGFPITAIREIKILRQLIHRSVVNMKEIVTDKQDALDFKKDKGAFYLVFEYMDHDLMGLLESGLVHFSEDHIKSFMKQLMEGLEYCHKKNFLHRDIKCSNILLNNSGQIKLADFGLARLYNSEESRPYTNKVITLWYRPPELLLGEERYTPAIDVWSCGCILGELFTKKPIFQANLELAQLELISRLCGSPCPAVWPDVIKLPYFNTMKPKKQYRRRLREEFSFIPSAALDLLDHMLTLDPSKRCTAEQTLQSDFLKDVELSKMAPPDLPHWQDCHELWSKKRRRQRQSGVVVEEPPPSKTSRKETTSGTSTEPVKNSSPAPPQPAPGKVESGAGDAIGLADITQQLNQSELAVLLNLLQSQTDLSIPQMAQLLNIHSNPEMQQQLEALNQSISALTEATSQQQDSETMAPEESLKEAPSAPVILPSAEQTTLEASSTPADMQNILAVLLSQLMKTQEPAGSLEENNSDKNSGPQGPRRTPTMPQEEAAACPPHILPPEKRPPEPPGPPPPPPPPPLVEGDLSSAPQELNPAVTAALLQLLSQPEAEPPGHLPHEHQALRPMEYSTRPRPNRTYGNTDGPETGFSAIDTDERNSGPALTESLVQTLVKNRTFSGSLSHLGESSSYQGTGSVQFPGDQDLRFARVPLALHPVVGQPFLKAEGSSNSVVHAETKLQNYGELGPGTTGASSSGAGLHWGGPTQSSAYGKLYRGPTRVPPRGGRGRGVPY
- Sequence (O75909 whole entry partner): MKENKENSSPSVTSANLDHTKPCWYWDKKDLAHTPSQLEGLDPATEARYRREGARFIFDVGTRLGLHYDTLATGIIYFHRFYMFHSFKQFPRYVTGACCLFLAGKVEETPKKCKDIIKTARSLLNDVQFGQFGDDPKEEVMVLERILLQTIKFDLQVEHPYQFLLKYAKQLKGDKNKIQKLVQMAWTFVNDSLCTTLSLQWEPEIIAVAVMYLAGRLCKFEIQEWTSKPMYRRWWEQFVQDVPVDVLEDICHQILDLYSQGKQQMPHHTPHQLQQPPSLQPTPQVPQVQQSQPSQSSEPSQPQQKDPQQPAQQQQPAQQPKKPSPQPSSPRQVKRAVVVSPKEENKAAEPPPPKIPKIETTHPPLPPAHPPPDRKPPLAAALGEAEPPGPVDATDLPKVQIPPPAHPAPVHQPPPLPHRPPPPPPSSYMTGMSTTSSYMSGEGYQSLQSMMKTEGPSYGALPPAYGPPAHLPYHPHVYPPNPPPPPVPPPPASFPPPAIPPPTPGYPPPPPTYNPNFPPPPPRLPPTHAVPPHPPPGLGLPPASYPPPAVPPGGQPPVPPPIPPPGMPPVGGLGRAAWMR
- Method Summary: CDK12 nuclear protein level: immunofluorescence/high content analysis (CAL-120)
- Type: cell-based
- Assay Setup: ratio of IC50 CDK12 high ATP kinase assay to DC50 CDK12 degradation (IF, CAL-120)
Measure Name: (IC50 CDK12 high ATP) to (Degradation DC50 CDK12) ratio

Compound: CN1CCN(c2nc(NCc3nc4c(OC(F)(F)F)cccc4[nH]3)n3ncc(Br)c3n2)CC1
Modifier Sign: >
Numeric Value: 1615
--
Compound: Brc1cnn2c(NCc3nc4ccccc4[nH]3)nc(OCC3CC3)nc12
Modifier Sign: >
Numeric Value: 352
--
Compound: Fc1ccc2[nH]c(CNc3nc(N4CCOCC4)nc4c(Br)cnn34)nc2c1
Modifier Sign: =
Numeric Value: 3856
--
Compound: Fc1ccc2[nH]c(CNc3nc(N4CCOCC4)nc4c(C5CC5(F)F)cnn34)nc2c1F (stereo not shown)
Modifier Sign: =
Numeric Value: 2070

* * *

- Target: CDK12 (nuclear staining in CAL-120 cells) (Homo sapiens, UniProt Q9NYV4)
- Construct: endogenous in cells; host or cells: CAL-120 human breast cancer cells (DSMZ ACC 459)
- Method Summary: CDK12 nuclear protein level: immunofluorescence/high content analysis (CAL-120)
- Assay type: cell-based
- Assay Setup: ratio of IC50 CDK12 high ATP kinase assay to DC50 CDK12 degradation (IF, CAL-120)
Doc: threshold 600 (exclusive). Items with (IC50 CDK12 high ATP) to (Degradation DC50 CDK12) ratio beneath it return t; others return f.

Structure As Smiles: CN1CCN(c2nc(NCc3nc4ccccc4[nH]3)n3ncc(Br)c3n2)CC1=O
Class Label: t
//
Structure As Smiles: C[C@@H]1CN(c2nc(NCc3nc4cc(F)ccc4[nH]3)n3ncc(Br)c3n2)C[C@H](C)O1
Class Label: t
//
Structure As Smiles: C[C@@H]1CN(c2nc(NCc3nc4ccccc4[nH]3)n3ncc(Br)c3n2)C[C@H](C)N1
Class Label: f
//
Structure As Smiles: CCN1CCN(c2nc(NCc3nc4ccccc4[nH]3)n3ncc(Br)c3n2)CC1
Class Label: f
//
Structure As Smiles: Brc1cnn2c(NCc3nnc(-c4ccccc4)[nH]3)nc(N3CCCCC3)nc12
Class Label: t
//
Structure As Smiles: N[C@@H]1[C@@H]2C[C@H]1CN(c1nc(NCc3nc4ccccc4[nH]3)n3ncc(Br)c3n1)C2
Class Label: f
//
Structure As Smiles: Fc1ccc2[nH]c(CNc3nc(N4CCOCC4)nc4c(C5CCC5)cnn34)nc2c1F
Class Label: f
//
Structure As Smiles: Cc1cnn2c(NCc3nc4c(F)c(F)ccc4[nH]3)nc(N3CCOCC3)nc12
Class Label: f
//
Structure As Smiles: CN(CC(C)(C)O)c1nc(NCc2nc3c(F)c(Cl)ccc3[nH]2)n2ncc(C3CC3)c2n1
Class Label: t
//
Structure As Smiles: CC(C)c1cnn2c(NCc3nc4ccccc4[nH]3)nc(N3CCCOCC3)nc12
Class Label: f
//
Structure As Smiles: CC1(C)CN(c2nc(NCc3nnc(-c4ccccc4)[nH]3)n3ncc(C4CC4)c3n2)CCO1
Class Label: t
//
Structure As Smiles: Brc1cnn2c(NCc3ncc(-c4cccnc4)[nH]3)nc(N3CCOCC3)nc12
Class Label: t
//
Structure As Smiles: c1ccc2[nH]c(CNc3nc(N4C[C@@H]5CCCN[C@@H]5C4)nc4c(C5CC5)cnn34)nc2c1
Class Label: f
//
Structure As Smiles: c1ccc(-c2nnc(CNc3nc(N4CCOCC4)nc4c(C5CC5)cnn34)[nH]2)cc1
Class Label: t
//
Structure As Smiles: Cc1[nH]c(CNc2nc(N3CCOCC3)nc3c(Br)cnn23)nc1-c1ccccc1
Class Label: t

* * *

- Target: CDK12/CycK (Homo sapiens, UniProt Q9NYV4)
- Sequence (Q9NYV4 with tags, fused parts or gaps): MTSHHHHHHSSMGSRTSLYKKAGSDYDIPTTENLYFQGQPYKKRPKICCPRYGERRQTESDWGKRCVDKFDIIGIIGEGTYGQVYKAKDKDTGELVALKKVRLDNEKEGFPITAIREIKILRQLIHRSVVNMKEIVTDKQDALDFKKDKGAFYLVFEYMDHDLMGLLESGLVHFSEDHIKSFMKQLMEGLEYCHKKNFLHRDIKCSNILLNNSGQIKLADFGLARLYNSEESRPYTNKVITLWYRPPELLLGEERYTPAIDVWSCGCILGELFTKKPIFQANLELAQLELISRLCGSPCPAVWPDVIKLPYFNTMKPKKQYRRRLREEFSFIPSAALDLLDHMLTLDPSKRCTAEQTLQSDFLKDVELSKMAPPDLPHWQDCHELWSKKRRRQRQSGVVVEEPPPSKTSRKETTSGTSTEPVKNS
- Sequence (O75909 1-300 partner limits assumed): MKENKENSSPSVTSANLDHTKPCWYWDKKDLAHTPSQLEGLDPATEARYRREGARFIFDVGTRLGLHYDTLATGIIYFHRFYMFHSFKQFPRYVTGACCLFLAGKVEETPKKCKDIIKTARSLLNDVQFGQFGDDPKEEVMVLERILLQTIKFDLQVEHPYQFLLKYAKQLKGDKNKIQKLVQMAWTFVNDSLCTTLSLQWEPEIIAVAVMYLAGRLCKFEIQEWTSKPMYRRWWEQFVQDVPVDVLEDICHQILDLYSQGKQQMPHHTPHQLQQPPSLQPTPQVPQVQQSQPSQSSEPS
- Method Summary: CDK12/CycK high ATP kinase assay (TR-FRET, 2 mM ATP)
- Assay type: biochemical
- Assay Setup: 2 mM ATP (high ATP); median; read-out: CDK12/CyclinK, 2 mM ATP (high ATP), IC50-[mol/l] (median)
The following compounds are shown together with reported IC50 values.

Compound: CN(C)[C@H]1CCN(c2nc(NCc3nc4ccccc4[nH]3)n3ncc(Br)c3n2)C1 [Example 177]
IC50: > 20000 nM

Compound: Fc1c(Cl)ccc2[nH]c(CNc3nc(N4CCOCC4)nc4c(C5CC5)cnn34)nc12 [Example 370]
IC50: 169 nM

Compound: Brc1cnn2c(NCc3ncc(-c4ccccc4)[nH]3)nc(N3CCOCC3)nc12 [Example 23]
IC50: 1560 nM

Compound: OC[C@@H]1CCCCN1c1nc(NCc2nc3ccccc3[nH]2)n2ncc(Br)c2n1 [Example 59]
IC50: 547 nM

Compound: Brc1cnn2c(NCc3nc4ccccc4[nH]3)nc(OCC3CC3)nc12 [Example 408]
IC50: > 20000 nM

Compound: Brc1cnn2c(NCc3nnc(-c4ccccc4)[nH]3)nc(N3CC4(COC4)C3)nc12 [Example 65]
IC50: > 5710 nM

Compound: NC1CCN(c2nc(NCc3nc4ccccc4[nH]3)n3ncc(Br)c3n2)CC1 [Example 256]
IC50: > 20000 nM

Compound: CN1C[C@@H]2C[C@H]1CN2c1nc(NCc2nc3ccccc3[nH]2)n2ncc(Br)c2n1 [Example 219]
IC50: > 20000 nM

* * *

- Target: CDK12 (nuclear staining in CAL-120 cells) (Homo sapiens, UniProt Q9NYV4)
- Construct: endogenous in cells; host or cells: CAL-120 human breast cancer cells (DSMZ ACC 459)
- Method Summary: CDK12 nuclear protein level: immunofluorescence/high content analysis (CAL-120)
- Format: cell-based
- Assay Setup: ratio of IC50 CDK12 high ATP kinase assay to DC50 CDK12 degradation (IF, CAL-120)
Measure Name: (IC50 CDK12 high ATP) to (Degradation DC50 CDK12) ratio

Compound: COc1cccc(-c2cnc(CNc3nc(N4CCOCC4)nc4c(Br)cnn34)[nH]2)c1
Modifier Sign: =
Numeric Value: 276
--
Compound: CN(CC(C)(C)O)c1nc(NCc2nc3cc(OC(F)(F)F)ccc3[nH]2)n2ncc(Br)c2n1
Modifier Sign: =
Numeric Value: 15
--
Compound: COc1cccc(-c2nnc(CNc3nc(N4CCOCC4)nc4c(Br)cnn34)[nH]2)c1
Modifier Sign: =
Numeric Value: 224
--
Compound: CC(C)c1cnn2c(NCc3nc4ccccc4[nH]3)nc(N3CC4(COC4)C3)nc12
Modifier Sign: >
Numeric Value: 247
--
Compound: Fc1cccc2[nH]c(CNc3nc(N4CCOCC4)nc4c(Cl)cnn34)nc12
Modifier Sign: =
Numeric Value: 224
--
Compound: FC(F)(F)Cc1cnn2c(NCc3nc4cc(Cl)c(Cl)cc4[nH]3)nc(N3CCOCC3)nc12
Modifier Sign: =
Numeric Value: 557
--
Compound: CC(C)c1cnn2c(NCc3nc4ccccc4[nH]3)nc(N(C)C)nc12
Modifier Sign: >
Numeric Value: 212
--
Compound: Fc1c(Cl)ccc2[nH]c(CNc3nc(N4CCOCC4)nc4c(C5CC5)cnn34)nc12
Modifier Sign: =
Numeric Value: 77
--
Compound: Fc1cccc(-c2cnc(CNc3nc(N4CCOCC4)nc4c(Br)cnn34)[nH]2)c1
Modifier Sign: =
Numeric Value: 460
--
Compound: N[C@H]1CN(c2nc(NCc3nc4ccccc4[nH]3)n3ncc(Br)c3n2)CC12CC2
Modifier Sign: =
Numeric Value: 362
--
Compound: OCC1CN(c2nc(NCc3nc4ccccc4[nH]3)n3ncc(Br)c3n2)C1
Modifier Sign: =
Numeric Value: 167
--
Compound: OC1CCN(c2nc(NCc3nc4ccccc4[nH]3)n3ncc(Br)c3n2)CC1
Modifier Sign: =
Numeric Value: 957
--
Compound: Fc1cccc2[nH]c(CNc3nc(N4CCN5CCC4CC5)nc4c(C(F)(F)F)cnn34)nc12
Modifier Sign: =
Numeric Value: 1336
--
Compound: Cc1cc(-c2cnn3c(NCc4nc5ccccc5[nH]4)nc(N4CCN(C)CC4)nc23)ccn1
Modifier Sign: >
Numeric Value: 75
--
Compound: CC(C)c1cnn2c(NCc3nc4ccccc4[nH]3)nc(N3CCN(C)CC3)nc12
Modifier Sign: >
Numeric Value: 2365
--
Compound: CN1CC2CN(c3nc(NCc4nc5ccccc5[nH]4)n4ncc(Br)c4n3)CC2C1 (centres unmarked)
Modifier Sign: >
Numeric Value: 3596
--
Compound: OC[C@@H]1CCCCN1c1nc(NCc2nc3ccccc3[nH]2)n2ncc(Br)c2n1
Modifier Sign: =
Numeric Value: 104

* * *

- Target: CDK12/CycK (Homo sapiens)
- Method Summary: CDK12/CycK high ATP kinase assay (TR-FRET, 2 mM ATP)
- Type: biochemical
- Assay Setup: 2 mM ATP (high ATP); median; read-out: CDK12/CyclinK, 2 mM ATP (high ATP), IC50-[mol/l] (median)
The following compounds are shown together with reported log10 of IC50 values.
Measure Name: log10 of IC50 (log10 of the value in µM)

Compound: CN1CCN(c2nc(NCc3nc4ccccc4[nH]3)n3ncc(Br)c3n2)C(CO)C1 (centres unmarked) [Example 155]
Target: CDK12/CycK (Homo sapiens)
Numeric Value: 0.57
--
Compound: FC(F)Cc1cnn2c(NCc3nc4ccccc4[nH]3)nc(N3CCOCC3)nc12.O=C(O)C(F)(F)F
Target: CDK12/CycK (Homo sapiens)
Numeric Value: 0.93
--
Compound: CC(C)c1cnn2c(NCc3ncc(-c4ccccc4)[nH]3)nc(N(C)CC(C)(C)O)nc12
Target: CDK12/CycK (Homo sapiens)
Numeric Value: 0.34
--
Compound: Clc1cc2nc(CNc3nc(N4CC5CCC(C4)N5)nc4c(C5CC5)cnn34)[nH]c2cc1Cl
Target: CDK12/CycK (Homo sapiens)
Numeric Value: -0.07
--
Compound: CCc1cnn2c(NCc3nc4c(OC)cccc4[nH]3)nc(N3CCOCC3)nc12
Target: CDK12/CycK (Homo sapiens)
Numeric Value: 0.43
--
Compound: Fc1ccc2[nH]c(CNc3nc(N4CCOCC4)nc4c(-c5cncs5)cnn34)nc2c1F.O=C(O)C(F)(F)F
Target: CDK12/CycK (Homo sapiens)
Numeric Value: -0.23
--
Compound: Cc1cc2nc(CNc3nc(N4CC5CCC(C4)N5)nc4c(Br)cnn34)[nH]c2cc1C
Target: CDK12/CycK (Homo sapiens)
Numeric Value: 0.40
--
Compound: Cc1ccc2[nH]c(CNc3nc(N4CCNCC4)nc4c(Br)cnn34)nc2c1
Target: CDK12/CycK (Homo sapiens)
Numeric Value: 0.64
--
Compound: O=S1(=O)CCN(c2nc(NCc3nc4ccccc4[nH]3)n3ncc(Br)c3n2)CC1
Target: CDK12/CycK (Homo sapiens)
Numeric Value: 0.78
--
Compound: C[C@@H]1CN(c2nc(NCc3nnc(-c4ccccc4)[nH]3)n3ncc(Br)c3n2)C[C@H](C)N1C
Target: CDK12/CycK (Homo sapiens)
Numeric Value: 1.04
--
Compound: FC(F)(F)Oc1cccc2[nH]c(CNc3nc(N4C[C@H]5CC[C@@H](C4)N5)nc4c(Br)cnn34)nc12
Target: CDK12/CycK (Homo sapiens)
Numeric Value: 0.77
--
Compound: CN(CC(C)(C)O)c1nc(NCc2nc3c(F)c(F)ccc3[nH]2)n2ncc(C(F)(F)F)c2n1
Target: CDK12/CycK (Homo sapiens)
Numeric Value: -0.65
--
Compound: CN1C2CCC1CN(c1nc(NCc3nc4c(F)cccc4[nH]3)n3ncc(C(F)(F)F)c3n1)C2
Target: CDK12/CycK (Homo sapiens)
Numeric Value: 0.91
--
Compound: Clc1cc2nc(CNc3nc(N4CCOCC4)nc4c(Br)cnn34)[nH]c2cc1Cl
Target: CDK12/CycK (Homo sapiens)
Numeric Value: -0.27
--
Compound: Brc1cnn2c(NCc3nc4ccccc4[nH]3)nc(N3C[C@H]4CC[C@@H]3CO4)nc12 (single isomer, unassigned) [Example 383]
Target: CDK12/CycK (Homo sapiens)
Numeric Value: 0.70
--
Compound: CN(CC(C)(C)O)c1nc(NCc2nc3cc(C(F)(F)F)ccc3[nH]2)n2ncc(Br)c2n1
Target: CDK12/CycK (Homo sapiens)
Numeric Value: -0.18
--
Compound: Fc1c(Cl)ccc2[nH]c(CNc3nc(N4CC5CCC(C4)N5)nc4c(C5CC5)cnn34)nc12
Target: CDK12/CycK (Homo sapiens)
Numeric Value: -0.28
--
Compound: c1ccc2[nH]c(CNc3nc(N4CCNCC4)nc4c(C5CC5)cnn34)nc2c1
Target: CDK12/CycK (Homo sapiens)
Numeric Value: 1.17
--
Compound: N#Cc1cccc(-c2c[nH]c(CNc3nc(N4CCOCC4)nc4c(Br)cnn34)n2)c1
Target: CDK12/CycK (Homo sapiens)
Numeric Value: -0.39
--
Compound: Fc1ccc2[nH]c(CNc3nc(N4CC5CCC(C4)N5)nc4c(C(F)(F)F)cnn34)nc2c1F
Target: CDK12/CycK (Homo sapiens)
Numeric Value: 0.11
--
Compound: Fc1ccc2[nH]c(CNc3nc(N4C[C@@H]5CCCN[C@@H]5C4)nc4c(C5CC5)cnn34)nc2c1F
Target: CDK12/CycK (Homo sapiens)
Numeric Value: 0.82
--
Compound: Brc1cnn2c(NCc3nc4ccccc4[nH]3)nc(N3CCNC4(CC4)C3)nc12
Target: CDK12/CycK (Homo sapiens)
Numeric Value: 0.37
